pIC50: −log10 of the molar value.
Listing of pIC50 toward ROCK2 (Homo sapiens, UniProt O75116), each taken from a published source.
measure: pIC50

CC(=O)c1ccc2c(C(=O)N[C@H]3CC4(C3)C[C@H](c3n[nH]c(=O)c5ccccc53)C4)cnn2c1 (some centres unmarked); 8.30 to 8.70
COc1nc(N2CCC3(Cc4ccc(F)cc4C3)C2=O)ccc1-c1cn[nH]c1 (single isomer, unassigned); > 8.52
COc1nc(-n2ccn(Cc3ccc(F)cc3C)c2=O)ccc1-c1cn[nH]c1; 7.70 to 8.68
[H][C@]1(c2n[nH]c(=O)c3ccccc32)C[C@]2(C[C@@H](NC(=O)c3ccc(-c4cnn(C(C)C)c4)c(F)c3)C2)C1 (some centres unmarked); 8.30 to 8.70
COc1ccc(F)c(CN2CCN(c3ccc(-c4cn[nH]c4)c(OC)c3)C2=O)c1; 6.70 to 7.70
[H][C@]1(c2n[nH]c(=O)c3ccccc32)C[C@]2(C[C@@H](NC(=O)c3ccc(-c4cnn(C)c4)c(OC)c3)C2)C1 (some centres unmarked); 8.30 to 8.70
[H][C@]1(c2n[nH]c(=O)c3ccccc32)C[C@]2(C[C@@H](NC(=O)c3cnc4cc(OC(CF)CF)ccn34)C2)C1 (some centres unmarked); 8.30 to 8.70
Cn1cc(-c2cnc(C(=O)N[C@H]3CC4(C3)C[C@H](c3n[nH]c(=O)c5ccccc53)C4)c(F)c2)cn1 (some centres unmarked); 7.00 to 7.82
